Values were extracted from paper PMC4027202.

# tgt: T1, Toscana virus nucleoprotein N (Toscana virus, UniProt P21701 1-253)
# T1 sequence: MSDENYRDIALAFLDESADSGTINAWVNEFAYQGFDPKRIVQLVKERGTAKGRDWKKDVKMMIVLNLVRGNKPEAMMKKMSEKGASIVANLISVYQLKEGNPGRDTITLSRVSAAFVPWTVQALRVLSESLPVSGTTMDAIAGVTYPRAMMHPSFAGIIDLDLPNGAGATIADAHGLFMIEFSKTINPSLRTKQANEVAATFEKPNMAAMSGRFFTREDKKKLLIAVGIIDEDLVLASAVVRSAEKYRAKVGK
# assayMethodText: ITC; n=0.40; ITC: 20 mM Tris pH 7.5, 150 mM NaCl, 8 C; 400 uM RNA titrated into 30 uM apo N
# reportedConditions: protein: recombinant; tags: N-terminal His6; chain copies: 6; single strand
measurementType: Kd (nM)
Numbers only, in nM.

For UUUUUUUUU (ssRNA) [oligo5 (polyU 9-mer)] , what is its reported Kd?
360
